- System: Monocotyledonous and dicotyledonous test plants
- Test Details: Herbicidal action prior to emergence of the plants (pre-emergence action), Example B1
- Assay type: in vivo
- Details: preemergence application, 250 g/ha, ABUTH, evaluated after 4 weeks; 100%=total damage, 0%=no damage
Response field label: string, one of Fulfilled (herbicidal damage, ABUTH strictly below 70%) or Not fulfilled.

Recorded results for 6 molecules are shown here.
Molecule: Cc1nnc2c(C(=O)C3=C(O)CCCC3=O)ccc(C(F)(F)F)n12
Answer Label: Not fulfilled

Molecule: O=C(C1=C(O)C2CCC(C2)C1=O)c1ccc(C(F)(F)F)n2nc(Cl)nc12 (stereo not drawn)
Answer Label: Fulfilled

Molecule: CCc1nnc2c(C(=O)C3=C(O)C4CCC(C4)C3=O)ccc(C(F)(F)F)n12 (stereo not drawn)
Answer Label: Not fulfilled

Molecule: O=C(C1=C(O)C2CCC(C2)C1=O)c1ccc(C(F)(F)F)n2c(Cl)nnc12 (stereo not drawn)
Answer Label: Not fulfilled

Molecule: O=C(C1=C(O)C2CCC(C2)C1=O)c1ccc(C(F)(F)F)n2nc(-c3ccc(Cl)cc3)nc12 (stereo not drawn)
Answer Label: Fulfilled

Molecule: Cc1nnc2c(C(=O)C3C(=O)C4CCC(C4)C3=O)ccc(C(F)(F)F)n12 (stereo not drawn)
Answer Label: Not fulfilled

herbicidal damage, ABUTH strictly < 70% for this molecule? CCOc1nnc2c(C(=O)C3=C(O)C4CCC(C4)C3=O)ccc(C(F)(F)F)n12 (stereo not drawn)
Fulfilled

herbicidal damage, ABUTH strictly < 70% for this molecule? Cc1nnc2c(C(=O)C3=C(O)C(C)(C)C(=O)C(C)(C)C3=O)ccc(C(F)(F)F)n12
Not fulfilled

herbicidal damage, ABUTH strictly < 70% for this molecule? Cc1nnc2c(C(=O)C3=C(O)C4(CCC3=O)CC4)ccc(C(F)(F)F)n12
Not fulfilled

herbicidal damage, ABUTH strictly < 70% for this molecule? O=C1CCCC(O)=C1C(=O)c1ccc(C(F)(F)F)n2c(-c3cccnc3)nnc12
Fulfilled

herbicidal damage, ABUTH strictly < 70% for this molecule? CC(C)c1nnc2c(C(=O)C3=C(O)C(C)(C)C(=O)C(C)(C)C3=O)ccc(C(F)(F)F)n12
Not fulfilled

herbicidal damage, ABUTH strictly < 70% for this molecule? O=C(C1=C(O)C2CCC(C2)C1=O)c1ccc(C(F)(F)F)n2ncnc12 (stereo not drawn)
Not fulfilled

herbicidal damage, ABUTH strictly < 70% for this molecule? O=C1CCCC(O)=C1C(=O)c1ccc(C(F)(F)F)n2cnnc12
Not fulfilled

herbicidal damage, ABUTH strictly < 70% for this molecule? O=C1CCCC(O)=C1C(=O)c1ccc(C(F)(F)F)n2c(Br)nnc12
Not fulfilled

herbicidal damage, ABUTH strictly < 70% for this molecule? O=C(C1=C(O)C2CCC(C2)C1=O)c1ccc(C(F)(F)F)n2c(C3CC3)nnc12 (stereo not drawn)
Not fulfilled
